Items are presented alongside their recorded Audiogenic Response % Inhib..
Tested on: audiogenic seizures in DBA/2 mice
Assay: In vivo anticonvulsant activity in the DBA/2 mouse model (audiogenic seizures)
Conditions: 40 mg/kg intraperitoneally, 30 minutes prior to auditory stimulus
# output: number + unit

Br.CCCCOc1ccc(NC(=N)Nc2ccc(OCCCC)cc2)cc1: 82%
CCC(C)c1ccc(N(Cc2ccc(C(C)(C)C)cc2)C(=N)N)cc1 (stereo not shown): 91%

q: Can you look up the measured Audiogenic Response % Inhib. of "CC(C)(C)c1ccc(NC(=N)Nc2cccc(OCc3ccccc3)c2)cc1.CS(=O)(=O)O" for me?
a: 80%

q: Can you look up the measured Audiogenic Response % Inhib. of "CCCCc1ccc(NC(=N)Nc2ccc(OCc3ccccc3)cc2)cc1.Cl" for me?
a: 90%

q: Can you look up the measured Audiogenic Response % Inhib. of "N=C(Nc1ccc(OCc2ccccc2)cc1)Nc1ccc(Oc2ccccc2)cc1" for me?
a: 93%

q: Can you look up the measured Audiogenic Response % Inhib. of "CCCCc1ccc(NC(=N)N(C)c2ccc(OCc3ccccc3)cc2)cc1.CS(=O)(=O)O" for me?
a: 92.5%

q: Can you look up the measured Audiogenic Response % Inhib. of "CC(C)(C)c1ccc(NC(=N)Nc2cccc(COCc3ccccc3)c2)cc1.CS(=O)(=O)O" for me?
a: 93%

q: Can you look up the measured Audiogenic Response % Inhib. of "CCCCc1ccc(NC(=N)Nc2ccc(CCCC)cc2)cc1.CS(=O)(=O)O" for me?
a: 92%

q: Can you look up the measured Audiogenic Response % Inhib. of CCC(C)c1ccc(N(Cc2ccc(C(C)(C)C)cc2)C(=N)NN2CCSCC2)cc1.Cl (stereo not shown) for me?
a: 89%

q: Can you look up the measured Audiogenic Response % Inhib. of "CC(C)(C)c1ccc(CN(C(=N)NN2CCOCC2)c2ccc(OCc3ccccc3)cc2)cc1.Cl" for me?
a: 68%
